# Assay text: Phase 1 clinical study, pharmacokinetics of granisetron after intravenous and intranasal administration
# Format: in vivo, human
# Setup conditions: human, plasma, inhaled or intranasal; intranasal 0.5 mg (TRG capsule, single nostril), healthy male volunteers, mean

# Compound, Scale unit, Cmax
records = [
    ("CN1C2CCCC1CC(NC(=O)c1nn(C)c3ccccc13)C2 (stereo not shown) [Granisetron]", "ng/mL", 4.95),
]

----------
# Assay text: Phase 1 clinical study, pharmacokinetics of granisetron after intravenous and intranasal administration
# Type: in vivo, human
# Setup conditions: human, plasma, inhaled or intranasal; intranasal 2.0 mg (TRG capsule, single nostril), healthy male volunteers, mean
Property measured: AUC(0-t) (ng·h/mL)

# Compound, Measurement
records = [
    ("CN1C2CCCC1CC(NC(=O)c1nn(C)c3ccccc13)C2 (stereo not shown)", 210),
]
